Kd overview
system: 18S
test-description: 18S Kd by FTICR mass spectrometry
Hi! Could you send only the number? It should be in nM, unit omitted.

| compound | experimental-readout | unit-label | value-measured |
| --- | --- | --- | --- |
| CC(C)NC[C@H]1O[C@H](O[C@H]2[C@H](O[C@@H]3O[C@H](CO)[C@@H](O[C@H]4O[C@@H](CN)[C@@H](O)[C@H](O)[C@H]4N)[C@H]3O)[C@@H](O)[C@H](N)C[C@@H]2N)[C@H](N)[C@@H](O)[C@@H]1O [IBIS00561095] | Kd | nM | 1200 |
| NC[C@@H]1O[C@H](O[C@H]2[C@@H](O)[C@H](O[C@@H]3[C@@H](O)[C@H](N)C[C@H](N)[C@H]3O[C@H]3O[C@H](CNN)[C@@H](O)[C@H](O)[C@H]3N)O[C@@H]2CO)[C@H](N)[C@@H](O)[C@@H]1O [IBIS00560187] | Kd | nM | 1660 |
| NCCCCNC[C@H]1O[C@H](O[C@H]2[C@H](O[C@@H]3O[C@H](CO)[C@@H](O[C@H]4O[C@@H](CN)[C@@H](O)[C@H](O)[C@H]4N)[C@H]3O)[C@@H](O)[C@H](N)C[C@@H]2N)[C@H](N)[C@@H](O)[C@@H]1O [IBIS00561140] | Kd | nM | 6020 |
| CNC[C@H]1O[C@H](O[C@H]2[C@H](O[C@@H]3O[C@H](CO)[C@@H](O[C@H]4O[C@@H](CN)[C@@H](O)[C@H](O)[C@H]4N)[C@H]3O)[C@@H](O)[C@H](N)C[C@@H]2N)[C@H](N)[C@@H](O)[C@@H]1O [IBIS00560186] | Kd | nM | 1160 |

Known value: 18S Kd of the compound CC(C)(C)OC(=O)NNC[C@H]1O[C@H](O[C@H]2[C@H](O[C@@H]3O[C@H](CO)[C@@H](O[C@H]4O[C@@H](CN)[C@@H](O)[C@H](O)[C@H]4N)[C@H]3O)[C@@H](O)[C@H](N)C[C@@H]2N)[C@H](N)[C@@H](O)[C@@H]1O [IBIS00561082] equals 1350

Known value: 18S Kd of the compound NC[C@@H]1O[C@H](O[C@H]2[C@@H](O)[C@H](O[C@@H]3[C@@H](O)[C@H](N)C[C@H](N)[C@H]3O[C@H]3O[C@H](CN4CCOCC4)[C@@H](O)[C@H](O)[C@H]3N)O[C@@H]2CO)[C@H](N)[C@@H](O)[C@@H]1O [IBIS00561142] equals 3000

Known value: 18S Kd of the compound NCC1OC(OC2C(CO)OC(OC3C(O)C(N)CC(N)C3OC3OC(CNCCc4ccccc4)C(O)C(O)C3N)C2O)C(N)C(O)C1O (centres unmarked) [IBIS00561141] equals 2160

Known value: 18S Kd of the compound NCCCNC[C@H]1O[C@H](O[C@H]2[C@H](O[C@@H]3O[C@H](CO)[C@@H](O[C@H]4O[C@@H](CN)[C@@H](O)[C@H](O)[C@H]4N)[C@H]3O)[C@@H](O)[C@H](N)C[C@@H]2N)[C@H](N)[C@@H](O)[C@@H]1O [IBIS00561096] equals 1450

* * *

system: 16S
test-description: Measurement of 16S Kd by FTICR mass spectrometry
experimental-readout: Kd (nM)
Hi! Could you send only the number? It should be in nM, unit omitted.

| compound | unit-label | value-measured |
| --- | --- | --- |
| NCCCCNC[C@H]1O[C@H](O[C@H]2[C@H](O[C@@H]3O[C@H](CO)[C@@H](O[C@H]4O[C@@H](CN)[C@@H](O)[C@H](O)[C@H]4N)[C@H]3O)[C@@H](O)[C@H](N)C[C@@H]2N)[C@H](N)[C@@H](O)[C@@H]1O | nM | 6260 |
| NCCCNC[C@H]1O[C@H](O[C@H]2[C@H](O[C@@H]3O[C@H](CO)[C@@H](O[C@H]4O[C@@H](CN)[C@@H](O)[C@H](O)[C@H]4N)[C@H]3O)[C@@H](O)[C@H](N)C[C@@H]2N)[C@H](N)[C@@H](O)[C@@H]1O | nM | 1590 |
| NC[C@@H]1O[C@H](O[C@H]2[C@@H](O)[C@H](O[C@@H]3[C@@H](O)[C@H](N)C[C@H](N)[C@H]3O[C@H]3O[C@H](CNN)[C@@H](O)[C@H](O)[C@H]3N)O[C@@H]2CO)[C@H](N)[C@@H](O)[C@@H]1O | nM | 564 |
| CNC[C@H]1O[C@H](O[C@H]2[C@H](O[C@@H]3O[C@H](CO)[C@@H](O[C@H]4O[C@@H](CN)[C@@H](O)[C@H](O)[C@H]4N)[C@H]3O)[C@@H](O)[C@H](N)C[C@@H]2N)[C@H](N)[C@@H](O)[C@@H]1O | nM | 362 |

Moving on to the next compound.
// Kd lookup, compound = CC(C)NC[C@H]1O[C@H](O[C@H]2[C@H](O[C@@H]3O[C@H](CO)[C@@H](O[C@H]4O[C@@H](CN)[C@@H](O)[C@H](O)[C@H]4N)[C@H]3O)[C@@H](O)[C@H](N)C[C@@H]2N)[C@H](N)[C@@H](O)[C@@H]1O , result: 1180

* * *

Tested on: E. coli S30 bacterial extract (pBest Luc luciferase transcription/translation)
test-description: Coupled bacterial transcription/translation assay (T/T)
Format: biochemical
details: luciferase reporter, 35 minutes at 37° C., read-out: Trans/Trans IC50
Procedure: The DNA template, pBest Luc™ (Promega), is a plasmid containing a reporter gene for firefly luciferase fused to a strong tac promoter and ribosome binding site. Messenger RNA from 1 μg pBestLuc was transcribed and translated in E. coli S30 bacterial extract in the presence or absence of test compound. Compounds were tested in a black 96 well microtiter plate with an assay volume of 35 mL. […] Light output was quantitated on a Packard TopCount.
pIC50: −log10 of the molar value.
Where pIC50 equals or exceeds 7, the correct label is TRUE; where it does not, the label is FALSE.

Example results:
| compound | answer-label |
| --- | --- |
| NCCCCNC[C@H]1O[C@H](O[C@H]2[C@H](O[C@@H]3O[C@H](CO)[C@@H](O[C@H]4O[C@@H](CN)[C@@H](O)[C@H](O)[C@H]4N)[C@H]3O)[C@@H](O)[C@H](N)C[C@@H]2N)[C@H](N)[C@@H](O)[C@@H]1O | TRUE |
| CC(C)(C)OC(=O)NNC[C@H]1O[C@H](O[C@H]2[C@H](O[C@@H]3O[C@H](CO)[C@@H](O[C@H]4O[C@@H](CN)[C@@H](O)[C@H](O)[C@H]4N)[C@H]3O)[C@@H](O)[C@H](N)C[C@@H]2N)[C@H](N)[C@@H](O)[C@@H]1O | FALSE |
| NC[C@@H]1O[C@H](O[C@H]2[C@@H](O)[C@H](O[C@@H]3[C@@H](O)[C@H](N)C[C@H](N)[C@H]3O[C@H]3O[C@H](CNN)[C@@H](O)[C@H](O)[C@H]3N)O[C@@H]2CO)[C@H](N)[C@@H](O)[C@@H]1O | FALSE |
| CC(C)NC[C@H]1O[C@H](O[C@H]2[C@H](O[C@@H]3O[C@H](CO)[C@@H](O[C@H]4O[C@@H](CN)[C@@H](O)[C@H](O)[C@H]4N)[C@H]3O)[C@@H](O)[C@H](N)C[C@@H]2N)[C@H](N)[C@@H](O)[C@@H]1O | FALSE |
| NC[C@@H]1O[C@H](O[C@H]2[C@@H](O)[C@H](O[C@@H]3[C@@H](O)[C@H](N)C[C@H](N)[C@H]3O[C@H]3O[C@H](CN4CCOCC4)[C@@H](O)[C@H](O)[C@H]3N)O[C@@H]2CO)[C@H](N)[C@@H](O)[C@@H]1O | FALSE |

Given the entry NCC1OC(OC2C(CO)OC(OC3C(O)C(N)CC(N)C3OC3OC(CNCCc4ccccc4)C(O)C(O)C3N)C2O)C(N)C(O)C1O (stereo not drawn) , answer whether its pIC50 meets or surpasses 7. FALSE

* * *

# MIC measurements, system: E. Coli.

| molecule | value-measured |
| --- | --- |
| NC[C@@H]1O[C@H](O[C@H]2[C@@H](O)[C@H](O[C@@H]3[C@@H](O)[C@H](N)C[C@H](N)[C@H]3O[C@H]3O[C@H](CN4CCC5CCCCC54)[C@@H](O)[C@H](O)[C@H]3N)O[C@@H]2CO)[C@H](N)[C@@H](O)[C@@H]1O (some centres unmarked) | 1.25 to 2.5 µM |

Moving on to the next molecule.
Known value: E. Coli. MIC of the molecule NC[C@@H]1O[C@H](O[C@H]2[C@@H](O)[C@H](O[C@@H]3[C@@H](O)[C@H](N)C[C@H](N)[C@H]3O[C@H]3O[C@H](CN4CCOCC4)[C@@H](O)[C@H](O)[C@H]3N)O[C@@H]2CO)[C@H](N)[C@@H](O)[C@@H]1O equals 20 to 40 µM
